# System: mutant HTT protein (mHTT)
# experimentSummary: Homogeneous Time Resolved Fluorescence (HTRF) assay for HTT lowering in GENEAe020-A cells
# Assay type: cell-based
# conditions: reduction of mHTT; Huntington patient human cells (GENEAe020-A cell line); 48 hours incubation; mean from three replicates
measuredQuantity: pEC50
Value format note: pEC50 is -log10 of concentration (mol/L); just state the number.

Q: Dear colleague, I am looking for the recorded pEC50 of the following compound: Cc1cn2nc(-c3nc4sc(C5CCNCC5(F)F)cc4c(=O)[nH]3)cc(C)c2n1 (stereo not drawn)
A: 5.64

Q: Dear colleague, I am looking for the recorded pEC50 of the following compound: Cc1cn2nc(-c3nc4sc([C@H]5CCNC[C@H]5F)cc4c(=O)[nH]3)cc(C)c2n1 (racemic)
A: 6.69

Q: Dear colleague, I am looking for the recorded pEC50 of the following compound: Cc1cn2nc(-c3nc4sc(C5CCNCC5)cc4c(=O)[nH]3)cc(C)c2n1
A: 7.30

Q: Dear colleague, I am looking for the recorded pEC50 of the following compound: Cc1cn2nc(-c3nc4sc(OC5CNC5)cc4c(=O)[nH]3)cc(C)c2n1
A: 5.33

Q: Dear colleague, I am looking for the recorded pEC50 of the following compound: Cc1cn2nc(-c3nc4sc(C5CCNC6(CC6)C5)cc4c(=O)[nH]3)cc(C)c2n1 (stereo not drawn)
A: 6.69

Q: Dear colleague, I am looking for the recorded pEC50 of the following compound: Cc1cn2nc(-c3nc4sc(OC5CCNCC5)cc4c(=O)[nH]3)cc(C)c2n1
A: 6.55
